Biological target: T1, human Trop-2-His (human, UniProt P09758 27-274, limits assumed)
T1 construct: by analogy with the macaque construct it is probably the extracellular domain with a His tag; also called Trop-2-His protein
T1 sequence: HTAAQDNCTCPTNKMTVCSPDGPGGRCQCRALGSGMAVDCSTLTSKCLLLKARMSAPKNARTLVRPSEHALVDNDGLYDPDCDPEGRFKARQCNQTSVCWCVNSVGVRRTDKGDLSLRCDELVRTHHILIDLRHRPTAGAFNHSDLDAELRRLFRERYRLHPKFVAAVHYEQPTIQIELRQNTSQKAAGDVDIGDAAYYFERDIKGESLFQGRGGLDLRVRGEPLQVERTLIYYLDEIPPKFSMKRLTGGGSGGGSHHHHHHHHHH
Assay: SPR (Biacore 8K), antibody captured, Trop-2-His as analyte
Reported pKd values for a set of binders
// field semantics: pKd = negative decimal log of concentration (mol/L)

For orientation, consider the following solved cases.
[[record]]
binder = "TINA (antibody, INN chains, looked up, V domains shown) VH: QVQLVQSGAEVKKPGASVKVSCKASGYTFTTAGMQWVRQAPGQGLEWMGWINTHSGVPKYAEDFKGRVTISADTSTSTAYLQLSSLKSEDTAVYYCARSGFGSSYWYFDVWGQGTLVTVSS VL: DIQMTQSPSSLSASVGDRVTITCKASQDVSTAVAWYQQKPGKAPKLLIYSASYRYTGVPSRFSGSGSGTDFTLTISSLQPEDFAVYYCQQHYITPLTFGQGTKLEIK"
result_number = 7.90

[[record]]
binder = "hz-Ab2-1.2 (antibody, human IgG1, kappa, V domains shown, Humanized antibody) VH: EVQLVESGPGLIQPGGSLRLSCAVSGFSLTYYGIDWVRQPPGKGLEWVGVIWGSGNTKYNYALKSRLTISKDNSKSTLYLQMNSLRAEDTAVYYCARFYEGFAYWGQGTLVTVSS VL: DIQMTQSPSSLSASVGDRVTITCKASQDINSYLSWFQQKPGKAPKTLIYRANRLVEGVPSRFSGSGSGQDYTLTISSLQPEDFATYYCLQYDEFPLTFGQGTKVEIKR"
result_number = 8.84

[[record]]
binder = "hz-Ab21-1.2 (antibody, human IgG1, kappa, V domains shown, Humanized antibody) VH: EVQLVESGGGLVKPGGSLRLSCAASGFTLRNYGVHWVRQAPGKGLEWVGVIWSSGTTDYNAAFISRFTISKDNSKNTLYLQMNSLKTEDTAVYYCTRDGDYDYYTMDYWGQGTLVTVSS VL: EIVLTQSPATLSLSPGERATLSCRASKSVSTSAYSYIHWYQQKPGQAPRLLIYLTSNLESGIPARFSGSGSGTDFTLTISSLEPEDFAVYYCQHSRELPYTFGQGTKVEIKR"
result_number = 9.01

[[record]]
binder = "hz-Ab2-1.1 (antibody, human IgG1, kappa, V domains shown, Humanized antibody) VH: EVQLVESGGGLIQPGGSLRLSCAVSGFSLTYYGIDWVRQPPGKGLEWVSVIWGSGNTKYNSALKSRLTISRDNSKSTLYLQMNSLRAEDTAVYYCARFYEGFAYWGQGTLVTVSS VL: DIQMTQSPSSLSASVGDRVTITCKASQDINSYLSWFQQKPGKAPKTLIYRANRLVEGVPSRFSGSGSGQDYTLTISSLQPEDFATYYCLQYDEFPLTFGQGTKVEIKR"
result_number = 7.32

[[record]]
binder = "hz-Ab21-1.1 (antibody, human IgG1, kappa, V domains shown, Humanized antibody) VH: EVQLVESGGGLVKPGGSLRLSCAASGFTLRNYGVHWVRQAPGKGLEWVGVIWSSGTTDYAAPVKGRFTISKDNSKNTLYLQMNSLKTEDTAVYYCTRDGDYDYYTMDYWGQGTLVTVSS VL: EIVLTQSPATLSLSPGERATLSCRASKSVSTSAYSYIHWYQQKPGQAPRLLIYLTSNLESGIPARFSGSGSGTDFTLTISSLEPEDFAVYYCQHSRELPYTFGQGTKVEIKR"
result_number = 8.92

[[record]]
binder = "hz-Ab35-2.3 (antibody, human IgG1, kappa, V domains shown, Humanized antibody) VH: QVQLVQSGAEVKKPGASVKVSCKASGYTFTSSDINWVRQRPGQGLEWMGWIYPRDGSKKYNEKFKGRVTMTVDTSTSTVYMELSSLRSEDTAVYYCATRFATVVSNYGLDPWGQGTLVTVSS VL: EIVLTQSPATLSLSPGERATLSCSASSSVNYIYWYQRKPGQAPRLLIYDTSNLASGIPARFSGSGSGTDYTLTISSLEPEDFAVYYCQQWNSYPLTFGQGTKVEIKR"
result_number = 9.17

[[record]]
binder = "hz-Ab35-2.2 (antibody, human IgG1, kappa, V domains shown, Humanized antibody) VH: QVQLVQSGAEVKKPGASVKVSCKASGYTFTSSDINWVRQRPGQGLEWMGWIYPRDGSKKYNEKFKGRVTMTVDTSTSTVYMELSSLRSEDTAVYYCARRFATVVSNYGLDPWGQGTLVTVSS VL: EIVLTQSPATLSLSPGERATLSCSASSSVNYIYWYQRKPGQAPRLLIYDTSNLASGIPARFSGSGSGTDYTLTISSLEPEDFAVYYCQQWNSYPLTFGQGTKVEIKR"
result_number = 8.05

[[record]]
binder = "hz-Ab2-1.3 (antibody, human IgG1, kappa, V domains shown, Humanized antibody) VH: QVQLQESGPGLVKPSETLSLTCTVSGFSLTYYGIDWIRQPPGKGLEWIGVIWGSGNTKYNSALKSRVTISKDNSKSQFSLKLSSVTAADTAVYYCARFYEGFAYWGQGTLVTVSS VL: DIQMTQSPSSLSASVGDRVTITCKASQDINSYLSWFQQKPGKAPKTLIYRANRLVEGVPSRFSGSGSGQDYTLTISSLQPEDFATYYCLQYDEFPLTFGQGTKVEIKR"
result_number = 7.78


Quick one: pKd of hz-Ab2-2.4 (antibody, human IgG1, kappa, V domains shown, Humanized antibody) VH: QVQLQESGPGLVKPSETLSLTCTVSGFSLTYYGIDWIRQPPGKGLEWIGVIWGSGNTKYNSALKSRVTISKDNSKSQVYLKLSSVTAADTAVYYCARFYEGFAYWGQGTLVTVSS VL: DIQMTQSPSSLSASVGDRVTITCRASQDINSYLSWFQQKPGKAPKTLIYRANRLVEGVPSRFSGSGSGQDFTLTISSLQPEDFATYYCLQYDEYPLTFGQGTKVEIKR ?
7.94

// same read-out, input: hz-Ab2-1.4 (antibody, human IgG1, kappa, V domains shown, Humanized antibody) VH: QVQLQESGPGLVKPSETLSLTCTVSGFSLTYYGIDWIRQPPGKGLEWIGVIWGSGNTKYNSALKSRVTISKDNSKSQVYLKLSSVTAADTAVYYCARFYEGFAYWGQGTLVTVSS VL: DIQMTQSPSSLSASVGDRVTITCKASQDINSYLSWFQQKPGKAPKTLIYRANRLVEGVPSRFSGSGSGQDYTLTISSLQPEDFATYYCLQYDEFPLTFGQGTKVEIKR
8.63

The reported measurements were obtained from patent US20250034275A1.
